Field: CRF1R EC50. Provide a value for each of the binders that follow.
molecular target: CRF1R; test: cell-based or functional assay
Ends that are not written are not given here.
Numbers only, in nM.

Sample answers from the record:
{"columns": ["binder", "measure_name", "value"],
 "data": [
  ["SQEPPISLDLPFGLLREVLEMTKADQLAQQAHSNRKLLDIA-NH2 [SEQ ID NO 103]", "CRF1R EC50", 100],
  ["ZGPPISIDLPGYLLRKMIEIEKQEKEKQQAANNRLLLDTI (C-terminal amide) [SEQ ID NO 63]", "CRF1R EC50", 73.2],
  ["DNPSLSIDLPLQLLRTLLELARTQSQRERAEQNAIIFASV-NH2 [SEQ ID NO 176]", "CRF1R EC50", 1000]
]}

With those in mind, consider the next binder.
Field CRF1R EC50 (entry DNPSLSIDLPFFLLRTLLELARTQSQRERAEQNAIIFASV-NH2 [SEQ ID NO 184] ) reads 486
